Molecular target: T1, full length human KLRG1 (human, UniProt Q96E93 1-195)
T1 sequence (looked up): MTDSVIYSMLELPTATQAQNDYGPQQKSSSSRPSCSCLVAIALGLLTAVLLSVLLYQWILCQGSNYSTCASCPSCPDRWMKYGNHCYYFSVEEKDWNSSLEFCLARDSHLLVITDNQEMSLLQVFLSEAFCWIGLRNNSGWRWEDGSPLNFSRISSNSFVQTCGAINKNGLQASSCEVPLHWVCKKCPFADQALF
Experiment: cell-based or functional assay
IFNγ released (pg/ml), Sample 2: recorded values
Lab book: enter the figure in pg/mL, no units written.

The following binders have reported results that may help.
ABC_G1N05 (antibody, V domains shown, Mouse hybridoma monoclonal antibody) VH: EVLLMESGGDLVKPGGSLKLSCAASGFTFSSYDMSWVRQTPDKRLEWVATISSSGRYTFYPDNVKGRFTISRDNAKNTLYLQVSNLKSEDTAMYYCSRTGVTTVVFTDYFDYWGQGTTLTVSS VL: DIQMTQSPSSLSASLGERVSLTCRASQDIGNSLNWLQQGPDGTIKRLIYATSSLDSGVPKRFSGSRSGSTYSLTISSLESEDFVAYYCLQYLSSPPTFGGGTKLEIK | 1080
ABC_G1N07 (antibody, V domains shown, Mouse hybridoma monoclonal antibody) VH: EVQLVESGGGLVKPGGSLKLSCTASGFTFRNYAMSWVRQTPEKRLEWVATISESGNYNNYPDNVKGRLTISRDNAKNNLYLQMSLLKSEDTAMYYCVRDDWEGRAMDYWGQGTSVTVSS VL: GIQMTQSPSSLSASLGERVSLTCRASRDIGSSLNWLQQKPDGTIKRLIYATSSLDSGVPKRFSGSRSGTDYSLTISSLESEDFVDYFCLQYASSPWTFGGGTKLEIK | 1390
ABC_G1N08 (antibody, V domains shown, Mouse hybridoma monoclonal antibody) VH: QVQLQQSGAELAKPGASVKLSCKASGYTFTSYFLHWVKQRPGQGLEWIGYMNPSSGYTKCNQKFKDKATLTADKSSSTAYMQVSSLTYEDSAVYYCARDRIGYWDFDVWGTGTTVTVSS VL: DVVMTQSQKFMSTTVGDRVSITCKASQNVGTAVAWYQQKPGQSPKLLIYSASNRYTGVPDRFTGSGSGTDFTLTITNMQSEDLADYFCQQYSSYLTFGAGTKLDLK | 1060
ABC_G1N03 (antibody, V domains shown, Mouse hybridoma monoclonal antibody) VH: QVHLQQSGPELVKPGASVKLSCKASGDTFTTYDITWVKQRPGQGLEWIGWIYPKDGRTQNSEKFKDKATLTVDTSSTTAYMELHSLTSEDSAVYFCARRGQFGPYFDHWGQGSTLTVSS VL: VIQMTQSSSFLSASLGGRVSITCRASDHIYNWLAWYQQKPGNAPRLLISGATSLETGIPSRFSGGGSGKDYTLTIISLQTEDIASYYCQQYWNTPPTFGGGTKVEIK | 869
ABC_G1N02 (antibody, V domains shown, Mouse hybridoma monoclonal antibody) VH: QVTLKESGPGILQPSQTLSLTCSVSGFSLSTFGMGVGWIRQPSGKGLEWLAHIWWDDDKWYELALKSRLTISKDSSKNQVFLKIANVDTADTATYFCARVIYYGSRSAYYSMDYWGPGTSVTVSS VL: DVLMTQTPLSLPVSLGAQASISCKSSQSIVHSNGHTYLEWYLQKPGQSPKILIYKVSNRFSGVPDRFSGSGSGTDFTLKISRVEAEDLGVYYCFQGSHVPVTFGAGTKLELK | 1290

Short answer for ABC_G1N06 (antibody, V domains shown, Mouse hybridoma monoclonal antibody) VH: QVQLKQSGPGLVQPSQSLSITCTVSGFSLTTHAVHWVRQSPGKGLDWLGVIWSGGNTDYNAAFISRLTISKDNSKSQVFFKMNSLQADDTAIYYCVRLLLPAMDYWGQGTSVTVSS VL: QIVLTQSPAIMSASLGERVTMTCTATSSVSSTYLHWYRQKPGSSPKLWIYSTSTLASGVPVRFRGSGSGTSYSLTISSMEAEDAATYYCHQYRRSPYTFGGGTKLEIK : IFNγ released (pg/ml), Sample 2 was 1140

Short answer for ABC_G1N01 (antibody, V domains shown, Mouse hybridoma monoclonal antibody) VH: QVILKESGPGILQPSQTLSLTCSFSGFSLTTFGMGIGWIRHPSGKALEWLAHIWWNDDKSYNSALKSRLTISKDTSKNQVFLRLANVATADTATYYCARTIYYGNYLTFYAMEHWGQGTSVTVSS VL: DVLLTQTPLSLPVSLGDQASISCRSSQNIVHSNGNTYLEWYLLKPGQSPKLLIFKVSNRFSGVPDKFSGSGSGTDFTLKIRRVEAEDLGIYYCFQGSHVPPTFGAGTKLELK : IFNγ released (pg/ml), Sample 2 was 1220
